Listed here: items and their measured Selectivity δ:κ.
- ASSAYED TARGET: human kappa opioid receptor (Homo sapiens)
- Construct: expressed in transfected cells; host or cells: CHO cells, stably transfected
- Sequence (P41145 whole entry): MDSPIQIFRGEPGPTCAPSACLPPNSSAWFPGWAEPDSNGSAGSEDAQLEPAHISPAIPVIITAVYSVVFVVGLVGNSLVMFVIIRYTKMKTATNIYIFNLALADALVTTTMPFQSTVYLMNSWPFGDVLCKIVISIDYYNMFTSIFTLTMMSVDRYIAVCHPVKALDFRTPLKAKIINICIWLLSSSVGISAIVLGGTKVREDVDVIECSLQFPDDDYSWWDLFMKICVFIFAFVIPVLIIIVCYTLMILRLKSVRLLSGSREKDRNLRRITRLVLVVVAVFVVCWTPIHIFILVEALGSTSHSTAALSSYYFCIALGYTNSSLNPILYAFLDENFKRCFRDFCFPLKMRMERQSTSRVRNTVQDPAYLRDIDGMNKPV
- TEST METHOD NOTES: Radioligand binding, [3H]U69,593 (κ), CHO membranes
- PARTICULARS: Table 1; ratio of Ki values
Keep the answer to the number alone.

Examples from the recorded data:
STRUCTURE NOTATION: CN1CC[C@]23CCCC[C@H]2[C@H]1Cc1c3ccc2nc(N)sc12
VALUE MEASURED: 30

STRUCTURE NOTATION: Nc1nc2cc3c(cc2s1)C[C@@H]1[C@@H]2CCCC[C@]32CCN1CC1CC1
VALUE MEASURED: 590

STRUCTURE NOTATION: Nc1nc2cc3c(cc2s1)C[C@@H]1[C@@H]2CCCC[C@]32CCN1CC1CCC1
VALUE MEASURED: 290

Attention now shifts to the item below.
Specify reported Selectivity δ:κ for the compound shown: CN1CC[C@]23CCCC[C@H]2[C@H]1Cc1cc2sc(N)nc2cc13
38
